Give self-splicing fitness (ln) for every item shown.
assay_protocol: self-splicing fitness, log relative to wild type (ln ratio); higher = more splicing; Tetrahymena group I intron in knt gene, E. coli kanamycin selection, DiMSum; sequences stand for … in CUCUCU…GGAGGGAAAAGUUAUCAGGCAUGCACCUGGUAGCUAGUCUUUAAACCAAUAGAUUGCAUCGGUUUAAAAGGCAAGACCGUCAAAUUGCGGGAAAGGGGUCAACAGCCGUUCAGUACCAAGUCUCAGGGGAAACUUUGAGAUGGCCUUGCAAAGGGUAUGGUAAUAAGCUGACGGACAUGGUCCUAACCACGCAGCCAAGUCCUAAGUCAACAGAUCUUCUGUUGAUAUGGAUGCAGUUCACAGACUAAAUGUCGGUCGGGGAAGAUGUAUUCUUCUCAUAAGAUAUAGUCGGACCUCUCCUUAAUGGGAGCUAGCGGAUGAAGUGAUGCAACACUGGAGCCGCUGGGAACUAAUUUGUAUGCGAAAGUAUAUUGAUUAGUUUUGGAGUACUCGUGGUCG;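 further: selection with 25 µg/mL kanamycin versus none on LB agar overnight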
assay_conditions: 37 °C

Enquiry: GET /values?readout=self-splicing fitness (ln)&item= "AGACAGCAAUAUUACGAGAA"
Return: -2.43

Enquiry: What do you have for "GGCGAGCAAUAUUACGUGGC" ?
Return: -1.73

Enquiry: Please do the same for "UGUCAGCAAUAUUACGCGCG" as well.
Return: 0.0603

Enquiry: Do the same for "AACUAGCAAUAUUACGAUUG" please
Return: -1.23

Enquiry: Please give the result for "UCGGAGCAAUAUUACGAUGA" too.
Return: -1.11

Enquiry: Okay, and "GAGAAGCAAUAUUACGCGCG" ?
Return: 0.218

Enquiry: Also, "UAAAAGCAAUAUUACGCGUU" please.
Return: -1.14

Enquiry: Queued: "AACGAGCAAUAUUACGGAAU"
Return: -1.81

Enquiry: Next sequence: "GUUGAGCAAUAUUACGCGGA"
Return: -0.744

Enquiry: Now the sequence "CCUGAGCAAUAUUACGAGCA"
Return: -3.47

Enquiry: Please answer likewise for "AACAAGCAAUAUUACGAUUG"
Return: -1.54

Enquiry: Follow-up item: "UUAGAGCAAUAUUACGUUUG"
Return: -1.05

Enquiry: Same lookup for "CAUUAGCAAUAUUACGAUGG" , please.
Return: 0.0641

Enquiry: Try this sequence too: "UCUGAGCAAUAUUACGUUUU"
Return: -3.26

Enquiry: Same again, this time with "GAAGAGCAAUAUUACGAUAA"
Return: -2.11

Enquiry: Can you check "UUCUAGCAAUAUUACGGUAG" next?
Return: -3.15

Enquiry: Now give it for "UGUAAGCAAUAUUACGUUCG" too.
Return: 0.33

Enquiry: Next sequence up: "CCUGAGCAAUAUUACGUUUC"
Return: -2.81

Enquiry: Then this sequence: "CGCCAGCAAUAUUACGACCU"
Return: -2.15

Enquiry: What would you report for "GGUAAGCAAUAUUACGUGAU" ?
Return: -1.68

Enquiry: Next sequence up: "GUACAGCAAUAUUACGCUCU"
Return: -0.379

Enquiry: Cool, now "GAUUAGCAAUAUUACGCGCA"
Return: 0.433

Enquiry: Note, next up: "AAGGAGCAAUAUUACGCUCA"
Return: -0.14

Enquiry: Now the sequence "GGAAAGCAAUAUUACGCUAA"
Return: -1.08

Enquiry: Entry "AUAUAGCAAUAUUACGCACU" please
Return: -0.204

Enquiry: Query "ACUUAGCAAUAUUACGCGGU" next
Return: -1.84

Enquiry: # repeat for "CUUCAGCAAUAUUACGUUGU"
Return: -2.92

Enquiry: Repeat with "GAUAAGCAAUAUUACGCGCC"
Return: -1.31

Enquiry: Try this sequence next: "AGGUAGCAAUAUUACGAAUA"
Return: -1.51

Enquiry: Same for "CCAGAGCAAUAUUACGCAGA"
Return: -2.84

Enquiry: How about "AUCGAGCAAUAUUACGGGCC" ?
Return: -2.19

Enquiry: And the next one, "UAAGAGCAAUAUUACGGUCA" ?
Return: -2.52

Enquiry: Do the same for "UCGUAGCAAUAUUACGGGGC" please
Return: -2.55

Enquiry: Now try "ACGGAGCAAUAUUACGUGUC" .
Return: -1.8

Enquiry: Please do the same for "GGUCAGCAAUAUUACGUUAU" as well.
Return: -0.158

Enquiry: Now consider "UCAAAGCAAUAUUACGCUCU" and answer again.
Return: -2.69

Enquiry: Try this sequence too: "ACGGAGCAAUAUUACGAUAA"
Return: -2.72

Enquiry: What would you report for "ACCAAGCAAUAUUACGCGUG" ?
Return: -1.19

Enquiry: Try this sequence next: "UACCAGCAAUAUUACGCCAC"
Return: -3.17

Enquiry: Check "UAAGAGCAAUAUUACGCCUU" too.
Return: -2.89

Enquiry: # iterate: "UCUCAGCAAUAUUACGACCC"
Return: -1.98

Enquiry: Try this sequence next: "GUUAAGCAAUAUUACGGCGG"
Return: -2.29

Enquiry: What about this sequence? "UGAAAGCAAUAUUACGGCCG"
Return: 0.807

Enquiry: What do we get for "CCGAAGCAAUAUUACGGAGA" ?
Return: -2.68

Enquiry: Would you mind doing "UUCUAGCAAUAUUACGAGGA" as well?
Return: -1.4

Enquiry: Same question for "UUUGAGCAAUAUUACGACUG" please.
Return: -1.03

Enquiry: Now give it for "UCAAAGCAAUAUUACGGAUU" too.
Return: -2.26

Enquiry: What do we get for "AUCUAGCAAUAUUACGUCGG" ?
Return: -2.72

Enquiry: And for "UGCCAGCAAUAUUACGAUUA" ?
Return: -0.743

Enquiry: Moving on to "CAAGAGCAAUAUUACGGUCG"
Return: -0.728

Enquiry: Lookup "CCCGAGCAAUAUUACGAUAC"
Return: -1.57

Enquiry: Would you mind doing "GCUCAGCAAUAUUACGGUCG" as well?
Return: -0.924

Enquiry: Ok, now "AAUAAGCAAUAUUACGAGCC"
Return: -1.64

Enquiry: And the next one, "AAUGAGCAAUAUUACGAGAG" ?
Return: -2.7

Enquiry: Lookup "UAUCAGCAAUAUUACGUCAA"
Return: -0.445

Enquiry: Also check "UGAGAGCAAUAUUACGUCUU"
Return: -1.9

Enquiry: // query: "GACGAGCAAUAUUACGGGGC"
Return: -2.25

Enquiry: What do we get for "GACUAGCAAUAUUACGAGUU" ?
Return: -2.74

Enquiry: // same read-out, input: "UUGCAGCAAUAUUACGCAGU"
Return: -2.71

Enquiry: // query: "CACUAGCAAUAUUACGUGAA"
Return: -3.05

Enquiry: Repeat with "GGACAGCAAUAUUACGUCAA"
Return: 0.0855

Enquiry: Now consider "GGCAAGCAAUAUUACGCUUU" .
Return: -0.416

Enquiry: Next sequence: "AUCAAGCAAUAUUACGACAC"
Return: -0.324

Enquiry: Again, but for "UCCUAGCAAUAUUACGGGGU"
Return: -2.65

Enquiry: Ok, now "CACGAGCAAUAUUACGCGAU"
Return: -2.51

Enquiry: Let us now turn to "CCAGAGCAAUAUUACGAGAG"
Return: -1.39

Enquiry: Quick one: "AUCGAGCAAUAUUACGUCUA"
Return: -0.994

---

assay_protocol: self-splicing fitness, log relative to wild type (ln ratio); higher = more splicing; Tetrahymena group I intron in knt gene, E. coli kanamycin selection, DiMSum; sequences stand for … in CUCUCU…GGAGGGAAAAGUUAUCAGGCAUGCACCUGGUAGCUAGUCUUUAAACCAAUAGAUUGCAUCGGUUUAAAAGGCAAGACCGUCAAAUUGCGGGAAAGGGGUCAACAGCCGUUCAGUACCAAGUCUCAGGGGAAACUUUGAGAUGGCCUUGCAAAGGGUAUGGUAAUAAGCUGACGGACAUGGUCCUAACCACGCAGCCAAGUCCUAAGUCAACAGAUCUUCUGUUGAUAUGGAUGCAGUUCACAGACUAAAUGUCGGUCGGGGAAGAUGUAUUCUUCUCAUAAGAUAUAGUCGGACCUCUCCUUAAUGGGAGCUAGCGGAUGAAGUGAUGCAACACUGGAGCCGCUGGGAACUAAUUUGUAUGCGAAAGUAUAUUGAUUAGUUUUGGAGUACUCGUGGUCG
assay_conditions: 37 °C
Given measured self-splicing fitness (ln), output Condition met if it is greater than or equal to -2 and Condition not met if not.

Enquiry: Form field: self-splicing fitness (ln) at least -2? Entry: "UCGAAGCAAUAUUACGGUUA"
Return: Condition met

Enquiry: What about "GGACAGCAAUAUUACGGAGG" ?
Return: Condition met

Enquiry: Consider next the sequence "UAGCAGCAAUAUUACGACGC" in the same way.
Return: Condition met

Enquiry: Next record, please: "GUUGAGCAAUAUUACGCGUU"
Return: Condition not met

Enquiry: Please answer likewise for "AGACAGCAAUAUUACGUGGG"
Return: Condition not met

Enquiry: Then what about the sequence "AAGAAGCAAUAUUACGAUGU" ?
Return: Condition met

Enquiry: Follow-up item: "GUAAAGCAAUAUUACGAAUC"
Return: Condition met

Enquiry: Subsequent entry: "CGCAAGCAAUAUUACGGCUA"
Return: Condition met
